# System: Escherichia coli TEM
# Assay name: MIC, standard agar-dilution assay (Table IX)
# Type: cell-based
# Test parameters: read-out: MIC
Attribute measured: MIC (µg/mL)
Write down the numeric answer in µg/mL and omit the unit.

Request: Item CCC1OC(=O)CC(O)C(C)C(OC2OC(C)C(O)C(N(C)C)C2O)C(CCN2CC=C(c3ccccc3)CC2)CC(C)C(=O)C=CC(C)=CC1COC1OC(C)C(O)C(OC)C1OC (stereo not drawn) has what recorded MIC?
Result: 32

Request: Then this compound: CCC1OC(=O)CC(O)C(C)C(OC2OC(C)C(O)C(N(C)C)C2O)C(CCN2CCC3CCCCC3C2)CC(C)C(=O)C=CC(C)=CC1COC1OC(C)C(O)C(OC)C1OC (stereo not drawn)
Result: 16

Request: Then this compound: CCC1OC(=O)CC(O)C(C)C(OC2OC(C)C(O)C(N(C)C)C2O)C(CCN2CC=CCC2)CC(C)C(=O)C=CC(C)=CC1COC1OC(C)C(O)C(OC)C1OC (stereo not drawn)
Result: 64

###

# Tested on: Staphylococcus aureus V41
# Assay name: MIC, standard agar-dilution assay (Table IX)
# Assay type: cell-based
# Test parameters: Staphylococcus aureus V41, Penicillin-resistant strain, read-out: MIC
Measured MIC of individual entries
Write down the numeric answer in µg/mL and omit the unit.

Take a look at these entries with their results.
Request: Item CCC1OC(=O)CC(O)C(C)C(OC2OC(C)C(O)C(N(C)C)C2O)C(CCN2CCCCCC2)CC(C)C(=O)C=CC(C)=CC1COC1OC(C)C(O)C(O)C1OC (stereo not shown) has what recorded MIC?
Result: 2

Request: Then this molecule: CCC1OC(=O)CC(O)C(C)C(OC2OC(C)C(O)C(N(C)C)C2O)C(CCN2CC3(C)CC2CC(C)(C)C3)CC(C)C(=O)C=CC(C)=CC1COC1OC(C)C(O)C(OC)C1OC (stereo not shown)
Result: 1

New cases:
Request: Item CCC1OC(=O)CC(O)C(C)C(OC2OC(C)C(O)C(N(C)C)C2O)C(CCN2CCCCCCCCCCCC2)CC(C)C(=O)C=CC(C)=CC1COC1OC(C)C(O)C(OC)C1OC (stereo not shown) has what recorded MIC?
Result: 0.25

Request: Then this molecule: CCC1OC(=O)CC(O)C(C)C(OC2OC(C)C(OC3CC(C)(O)C(O)C(C)O3)C(N(C)C)C2O)C(CCN2CC3CCC(CC3)C2)CC(C)C(=O)C=CC(C)=CC1COC1OC(C)C(O)C(OC)C1OC (stereo not shown)
Result: 4

Request: Then this molecule: CCC1OC(=O)CC(O)C(C)C(OC2OC(C)C(O)C(N(C)C)C2O)C(CCN2CCCCCCCC2)CC(C)C(=O)C=CC(C)=CC1COC1OC(C)C(O)C(OC)C1OC (stereo not shown)
Result: 0.5

Request: Then this molecule: CCC1OC(=O)CC(O)C(C)C(OC2OC(C)C(O)C(N(C)C)C2O)C(CCN2CCc3ccccc32)CC(C)C(=O)C=CC(C)=CC1COC1OC(C)C(O)C(OC)C1OC (stereo not shown)
Result: 0.25

###

# Assay name: Titratable groups in 66% aqueous DMF (Tables XIV-XVI)
# Assay type: physicochemical
# Test parameters: Titratable groups (first value)
Attribute measured: pKa
Quick one: just the number, no unit, thanks!

Request: Item CCC1OC(=O)CC(O)C(C)C(OC2OC(C)C(O)C(N(C)C)C2O)C(CCN2CCCC23CCCCC3)CC(C)C(=O)C=CC(C)=CC1COC1OC(C)C(O)C(OC)C1OC (stereo not shown) has what recorded pKa?
Result: 7.9

Request: Then this compound: CCC1OC(=O)CC(O)C(C)C(OC2OC(C)C(O)C(N(C)C)C2O)C(CCN2CCCCCCCCCCCC2)CC(C)C(=O)C=CC(C)=CC1COC1OC(C)C(O)C(OC)C1OC (stereo not shown)
Result: 8

In the following, a different compound is considered.
Request: Item CCC1OC(=O)CC(O)C(C)C(OC2OC(C)C(O)C(N(C)C)C2O)C(CCN2C3CCCCC3C3CCCCC32)CC(C)C(=O)C=CC(C)=CC1COC1OC(C)C(O)C(OC)C1OC (stereo not shown) has what recorded pKa?
Result: 7.95
